Assay: Plasma pharmacokinetics of bortezomib and docetaxel given in combination
Type: in vivo, patients
Conditions: human, plasma, intravenous, 1.5 mg, bortezomib 1.5 mg m^−2, day 11, patients with measurable plasma concentrations at 24 h post-dose; read-out: T½,z 24-h, mean (converted)
recorded.endpoint: half-life (h)
Answers are plain numbers, in h.

Input: So what does the record say about half-life for CC(C)C[C@H](NC(=O)[C@H](Cc1ccccc1)NC(=O)c1cnccn1)B(O)O ?
Output: 23.6

###

Assay: Plasma pharmacokinetics of bortezomib and docetaxel given in combination
Assay type: in vivo, patients
Settings: human, plasma, intravenous, 1.3 mg, bortezomib 1.3 mg m^−2 (n=3), day 11; read-out: Vss, mean (%CV)
recorded.endpoint: Vd

Input: So what does the record say about Vd for CC(C)C[C@H](NC(=O)[C@H](Cc1ccccc1)NC(=O)c1cnccn1)B(O)O ?
Output: 237 L
